Target: T1, SRA (human, UniProt Q96T88 414-617)
T1 sequence: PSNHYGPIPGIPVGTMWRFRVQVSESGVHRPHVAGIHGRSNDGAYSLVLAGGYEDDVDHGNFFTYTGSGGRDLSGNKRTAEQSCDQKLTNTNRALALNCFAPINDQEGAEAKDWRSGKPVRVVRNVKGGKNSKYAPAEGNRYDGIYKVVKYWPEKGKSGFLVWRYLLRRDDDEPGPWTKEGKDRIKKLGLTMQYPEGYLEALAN
Test: FP; 50 mM NaCl; ITC: 10 mM HEPES pH 8.0, 100 mM NaCl, 18 C; EMSA: 20 mM HEPES pH 7.5, 100 mM NaCl, 8% glycerol, 1 mM DTT, on ice; pull-down: 20 mM HEPES-NaOH pH 8.0, 100 mM NaC
quantity.name: Kd (nM)
Report only the number, with the unit nM understood.

FAM-12bp-HM-DNA (dsDNA, 5-methyl-dC at position 6 of strand 2 (GTCAGXGCATGG)) DNA 1: CCATGCGCTGAC DNA 2: GTCAGCGCATGG yielded Kd of 150
